All figures here come from patent US20220265656A1.

TARGET SYSTEM: IRE1a (Homo sapiens, UniProt O75460)
Sequence (O75460 19-977): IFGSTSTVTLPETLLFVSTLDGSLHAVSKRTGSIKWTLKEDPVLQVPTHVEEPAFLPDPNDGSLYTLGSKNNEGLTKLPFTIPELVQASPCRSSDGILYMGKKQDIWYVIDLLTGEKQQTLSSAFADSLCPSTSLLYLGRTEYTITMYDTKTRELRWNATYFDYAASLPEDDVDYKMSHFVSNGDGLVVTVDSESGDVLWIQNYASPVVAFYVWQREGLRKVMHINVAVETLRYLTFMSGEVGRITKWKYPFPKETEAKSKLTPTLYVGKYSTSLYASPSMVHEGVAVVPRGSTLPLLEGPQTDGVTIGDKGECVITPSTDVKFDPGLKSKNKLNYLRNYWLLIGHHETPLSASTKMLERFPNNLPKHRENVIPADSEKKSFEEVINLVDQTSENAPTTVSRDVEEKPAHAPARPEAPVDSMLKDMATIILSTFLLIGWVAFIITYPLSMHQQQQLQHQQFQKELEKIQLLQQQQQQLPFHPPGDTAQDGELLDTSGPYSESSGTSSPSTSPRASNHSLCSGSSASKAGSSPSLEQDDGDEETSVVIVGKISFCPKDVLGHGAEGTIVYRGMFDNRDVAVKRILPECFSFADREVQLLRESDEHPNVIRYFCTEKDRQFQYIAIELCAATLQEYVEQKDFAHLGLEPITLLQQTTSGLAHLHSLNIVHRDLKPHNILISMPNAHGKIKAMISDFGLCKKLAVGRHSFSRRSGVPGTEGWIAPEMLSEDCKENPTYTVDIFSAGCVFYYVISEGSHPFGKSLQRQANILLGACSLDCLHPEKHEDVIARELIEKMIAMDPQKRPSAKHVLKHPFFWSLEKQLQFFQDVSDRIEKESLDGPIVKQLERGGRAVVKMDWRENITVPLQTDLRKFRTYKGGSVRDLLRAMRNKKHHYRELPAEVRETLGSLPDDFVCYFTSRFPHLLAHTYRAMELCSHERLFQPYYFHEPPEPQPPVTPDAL
RUN DESCRIPTION: IRE1a Endoribonuclease Nanoluciferase Assay in 293T cells
EXPERIMENTAL PARAMETERS: XBP1 luciferase reporter in 293T cells, ER stressor
Structures can show the parent of a compound that is named as a salt.
ASSAY METRIC: EC50

>>> result("COc1nc(NS(=O)(=O)c2ccccc2Cl)c(F)cc1-c1cc(C)c2nc(N[C@H]3CC[C@H](N(C)C)CC3)ncc2c1 [145; Formic Acid Salt]")
"≤ 5 nM"
>>> result("COCc1cc(-c2ccc(NS(=O)(=O)c3ccccc3Cl)nc2OC)cc2cnc(N[C@H]3CC[C@H](N(C)C)CC3)nc12 [137; Formic Acid Salt]")
"≤ 5 nM"
>>> result("CCc1cc(-c2nnc(NS(=O)(=O)c3ccccc3Cl)cc2OC)cc2cnc(N[C@H]3CC[C@H](N(C)C)CC3)nc12 [159; Formic Acid Salt]")
"5 to 50 nM"
>>> result("CCc1c(F)c(-c2cc(F)c(NS(=O)(=O)c3ccccc3Cl)nc2OC)cc2cnc(N[C@H]3CC[C@H](N(C)C)CC3)nc12 [163; Formic Acid Salt]")
"≤ 5 nM"
>>> result("COc1nc(NS(=O)(=O)c2ccccc2Cl)c(F)cc1-c1cc(F)c2nc(N[C@H]3CC[C@H](N(C)C)CC3)ncc2c1 [155; Formic Acid Salt]")
"50 to 100 nM"

# EC50 lookup, item COc1nc(NS(=O)(=O)c2ccccc2Cl)ccc1-c1cc(C)c2nc(N[C@H]3CC[C@H](N(C)C)CC3)ncc2c1 [133; Formic Acid Salt] ≤ 5 nM

# EC50 lookup, item CCc1cc(-c2ccc(NS(=O)(=O)c3ccccc3Cl)nc2C)cc2cnc(N[C@H]3CC[C@H](N(C)CCOC)CC3)nc12 [132; Formic Acid Salt] ≤ 5 nM

---

TARGET SYSTEM: IRE1a (Homo sapiens)
RUN DESCRIPTION: IRE1a Endoribonuclease Nanoluciferase Assay in 293T cells
EXPERIMENTAL PARAMETERS: XBP1 luciferase reporter in 293T cells, ER stressor
Method: Compounds disclosed herein were assessed for disruption of IRE1 signaling using a IRE1a Endoribonuclease Nanoluciferase Assay. Briefly, 2.5×10^6 293T cells were seeded in a 10 cm^2 tissue culture plate. About 24 hours later, the cells were transfected with Effectene. […] Plates were read on luminometer, 1000 ms integration time per well, 15 uL Stop and Glo (nanoluciferase kit) was added. […] Plates were read on luminometer, 1000 ms second integration time per well. […]
Structures can show the parent of a compound that is named as a salt.
Form field: EC50 (one value per entry).

Example compounds with recorded EC50:
>>> result("CCc1cc(-c2ccc(NS(=O)(=O)c3ccccc3Cl)nc2OC)cc2cnc(N[C@H]3CC[C@@H](N(C)C)CC3)nc12 [141; Formic Acid Salt]")
"100 to 10000 nM"
>>> result("Cc1nc(NS(=O)(=O)c2ccccc2Cl)c(F)cc1-c1ccc2nc(N[C@H]3CC[C@H](N(C)C)CC3)ncc2c1 [153; Formic Acid Salt]")
"5 to 50 nM"
>>> result("CCc1cc(-c2ccc(NS(=O)(=O)c3ccccc3Cl)nc2C)cc2cnc(N[C@H]3CC[C@H](N(C)C)C[C@@H]3F)nc12 [151; Formic Acid Salt]")
"≤ 5 nM"

# EC50 lookup, item CCc1cc(-c2cc(F)c(NS(=O)(=O)c3ccccc3Cl)nc2OC)cc2cnc(N[C@H]3CC[C@H](N(C)C)CC3)nc12 [128; Formic Acid Salt] ≤ 5 nM

# EC50 lookup, item CCc1cc(-c2cnc(NS(=O)(=O)c3ccccc3Cl)nc2OC)cc2cnc(N[C@H]3CC[C@H](N(C)C)CC3)nc12 [154; Formic Acid Salt] ≤ 5 nM

# EC50 lookup, item CN[C@H]1CC[C@H](Nc2ncc3cc(-c4cc(F)c(NS(=O)(=O)c5ccccc5Cl)nc4OC)ccc3n2)CC1 [150; Formic Acid Salt] 5 to 50 nM
